Protocol Details: DRUGMATRIX: Atrial Natriuretic Factor (ANF) radioligand binding (ligand: [125I] ANF (rat))
Assay type: cell membranes, Cavia porcellus, Dunkin-Hartley, Adrenal gland, Membrane
Test Settings: Not Active = under 50% inhibition at 10 µM
Assay Readout: IC50

Give a short answer stating reported IC50 for CCN(CC)CC(=O)Nc1c(C)cccc1C . Not Active

Give a short answer stating reported IC50 for Nc1ccc2c3c(cccc13)C(=O)NC2=O . Not Active

Give a short answer stating reported IC50 for COc1cc([C@@H]2c3cc4c(cc3[C@@H](O[C@@H]3O[C@@H]5CO[C@@H](C)O[C@H]5[C@H](O)[C@H]3O)[C@H]3COC(=O)[C@H]23)OCO4)cc(OC)c1O [ETOPOSIDE] . Not Active

Give a short answer stating reported IC50 for CCC1(C)CC(=O)NC1=O (stereo not given) [ETHOSUXIMIDE] . Not Active

Give a short answer stating reported IC50 for CN(C/C=C/C#CC(C)(C)C)Cc1cccc2ccccc12 . Not Active

Give a short answer stating reported IC50 for CCCN(CCC)S(=O)(=O)c1ccc(C(=O)O)cc1 . Not Active

Continuing:
Give a short answer stating reported IC50 for Cc1c(OCC(F)(F)F)ccnc1C[S+]([O-])c1nc2ccccc2[nH]1 (stereo not given) . Not Active

Give a short answer stating reported IC50 for CC(C)(C)NC(=O)[C@H]1CC[C@H]2[C@@H]3CC[C@H]4NC(=O)C=C[C@]4(C)[C@H]3CC[C@]12C [FINASTERIDE] . Not Active

Give a short answer stating reported IC50 for Brc1c(NC2=NCCN2)ccc2nccnc12 . Not Active

Give a short answer stating reported IC50 for Oc1cccc(O)c1O . Not Active
